system: acetolactate synthase (ALS), resistant enzyme from R-XANST; assay: ALS enzymatic evaluation, resistant enzyme isolated from R-XANST; assay type: biochemical; settings: ratio I50 resistant / I50 sensitive enzyme
Would you kindly list Fold-resistance (R/S) for each of these molecules?

Prompt: Item "Cc1ccn2nc(S(=O)(=O)Nc3c(F)cccc3F)nc2n1" has what recorded Fold-resistance (R/S)?
Completion: 10,000

Prompt: What value of Fold-resistance (R/S) has been recorded for this entry: CC(C)C1(C)N=C(c2nc3ccccc3cc2C(=O)O)NC1=O (stereo not drawn)
Completion: 250

Prompt: Tell me the measured Fold-resistance (R/S) of "CC(C)C[C@H](N)C(=O)O" , please.
Completion: 1

Prompt: Given the entry CCc1cnc(C2=NC(C)(C(C)C)C(=O)N2)c(C(=O)O)c1 (single isomer, unassigned; (+)) , report its measured Fold-resistance (R/S).
Completion: 100

Prompt: // Fold-resistance (R/S) lookup, key: COc1cc(OC)nc(C(=O)c2c(Cl)ccc(Cl)c2C(=O)O)n1 [Di-Cl benzoate]
Completion: 2,200

Prompt: Look up Fold-resistance (R/S): "COc1nc(C)nc(NC(=O)NS(=O)(=O)c2ccccc2Cl)n1"
Completion: 6,250
